Target: Pantothenate synthetase (Mycobacterium tuberculosis, UniProt P9WIL5)
Sequence (P9WIL5 whole entry): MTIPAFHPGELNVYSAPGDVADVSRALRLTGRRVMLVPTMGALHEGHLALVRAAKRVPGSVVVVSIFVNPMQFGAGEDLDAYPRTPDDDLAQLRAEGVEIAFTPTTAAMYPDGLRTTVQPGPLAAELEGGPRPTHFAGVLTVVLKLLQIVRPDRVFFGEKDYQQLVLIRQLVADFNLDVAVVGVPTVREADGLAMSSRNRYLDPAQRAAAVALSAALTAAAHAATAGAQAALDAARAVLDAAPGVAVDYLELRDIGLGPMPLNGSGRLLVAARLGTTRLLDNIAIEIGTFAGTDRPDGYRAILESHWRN
Test: Competitive inhibition of Mycobacterium tuberculosis recombinant PanC expressed in Escherichia coli BL21 (DE3) using pantoic acid and ATP as substrate by Michaelis-Menten equation analysis
Entries and their pKi values follow.
# pKi is unitless: minus log10 of the molar concentration; print number only

CC(C)(CO)[C@@H](O)CNS(=O)(=O)NC[C@H]1O[C@@H](n2cnc3c(N)ncnc32)[C@H](O)[C@@H]1O
5.46
CC(C)(C)[C@@H](O)C(=O)NS(=O)(=O)OC[C@H]1O[C@@H](n2cnc3c(N)ncnc32)[C@H](F)[C@@H]1O
6.00
CC(C)(C)[C@@H](O)C(=O)NS(=O)(=O)OC[C@H]1O[C@@H](n2cnc3c(N)ncnc32)[C@H](O)[C@@H]1O
6.57
CC(C)(C)[C@@H](O)C(=O)NS(=O)(=O)OC[C@H]1C[C@@H](n2cnc3c(N)ncnc32)[C@H](O)[C@@H]1O
6.06

*Q* Entry CC(C)(C)[C@@H](O)C(=O)NS(=O)(=O)OC[C@H]1O[C@@H](n2cnc3c(N)ncnc32)[C@@H](O)[C@@H]1O needs its pKi filled in; supply it.
*A* 5.76
